Let's look at some pIC50 data for MAGL (Homo sapiens) that I collected from the literature.
Give bare numbers, as −log10 of the molar value.

Illustrative cases are given below, each with its answer.
>  <compound>
O=C(c1cscn1)N1CC(N2CCN(C(=O)c3cc4nc(C(F)(F)F)ccc4[nH]3)CC2)C1

>  <pIC50>
5.40

$$$$
>  <compound>
CC(C)(C)S(=O)(=O)c1ccc(C2CN(C(=O)CC[C@@H]3COC(=O)N3)C2)cn1

>  <pIC50>
5.93

$$$$
>  <compound>
O=C(c1ccc(-c2ccc(F)c(Cl)c2)cc1)N1CC(N2CCN(C(=O)c3cscn3)CC2)C1

>  <pIC50>
8.15

$$$$
>  <compound>
O=C1N[C@H](CCC(=O)N2CC(c3cnc(C4(C(F)(F)F)CC4)nc3)C2)CO1

>  <pIC50>
6.32

$$$$
>  <compound>
C[C@H]1[C@H](Oc2cc(C(F)(F)F)ccc2Br)CCN1C(=O)N1CC[C@@H]2OCC(=O)N[C@@H]2C1

>  <pIC50>
6.22

$$$$

Below are 7 compounds. Give each one its pIC50.
1. Cc1ccc2oc(N3CCN(C(=O)c4ccc(-c5cn(C6(C)COC6)nn5)cc4)CC3)nc2n1
2. Cc1nc(-c2ccccc2F)sc1C(=O)N1CC(N2CCN(C(=O)c3nccs3)CC2)C1
3. O=C(c1cccc(N2CCNCC2)c1F)N1CCN2C[C@@](O)(c3ccc(Cl)cc3)CC[C@@H]2C1
4. O=C(c1cccc(-c2cc[nH]n2)c1Cl)N1CCN2C[C@@](O)(c3ccc(F)c(Cl)c3)CC[C@@H]2C1
5. COc1cccc(C(=O)N2CCN3CC(c4ccc(F)c(Cl)c4)SC[C@@H]3C2)c1Cl (single isomer, unassigned)
6. CS(=O)(=O)c1cc(Cl)cnc1-c1ccc(C2CN(C(=O)CC[C@@H]3COC(=O)N3)C2)cc1
7. O=C(c1cccc(-c2c[nH]nc2F)c1Cl)N1CCN2C[C@@](O)(c3ccc(F)c(F)c3)OC[C@@H]2C1

1. 5.60
2. 6.82
3. 6.18
4. 8.51
5. 7.67
6. 8.52
7. 8.04

Below are 2 compounds. Give each one its pIC50.
1. Cc1ccc(-n2nc(C)c(C(=O)N3CC(N4CCN(C(=O)c5nccs5)CC4)C3)n2)cc1
2. O=C(c1cccc(-c2cnsc2)c1Cl)N1CCN2C[C@@](O)(c3ccc(F)c(Cl)c3)OC[C@@H]2C1

1: 6.68; 2: 7.01

Below are 3 compounds. Give each one its pIC50.
1. CC(C)(C)[Si](C)(C)OCCn1cc(C2CCN(C(=O)N3CC[C@@H]4OCC(=O)NC4C3)CC2)c2cc(Cl)ccc21 (stereo in doubt)
2. Cc1ccnnc1-c1cccc(C(=O)N2CCN3C[C@@H](c4ccc(F)c(Cl)c4)OC[C@@H]3C2)c1Cl
3. O=C(c1ccccc1)N1CCN(C2CN(C(=O)c3cccc4[nH]c(-c5ccc(F)cc5)nc34)C2)CC1

1. 6.17
2. 5.84
3. 5.77
